tested on: colic distension in rat; assay: Colic distension in rat (colon irritated with 1% acetic acid, balloon distension, abdominal cramps counted); format: in vivo; settings: 10 mg/kg p.o., 10 min colic distension, * = different from placebo at p < 0.05 (Dunnett)
endpoint: Mean number of abdominal cramps ± standard error

> print(dat)
                                   molecule  measured.value
1                       O=C(O)CCC(=O)C(=O)O              17
2                  N=C(N)NCCC[C@H](N)C(=O)O              20
3  Cl.NCCC[C@H](N)C(=O)O [Comparison 2, Ornithine, HCl]              19
4                             CCC(=O)C(=O)O              20
